# Tgt: UniProt P49841
# Sequence (P49841 whole entry): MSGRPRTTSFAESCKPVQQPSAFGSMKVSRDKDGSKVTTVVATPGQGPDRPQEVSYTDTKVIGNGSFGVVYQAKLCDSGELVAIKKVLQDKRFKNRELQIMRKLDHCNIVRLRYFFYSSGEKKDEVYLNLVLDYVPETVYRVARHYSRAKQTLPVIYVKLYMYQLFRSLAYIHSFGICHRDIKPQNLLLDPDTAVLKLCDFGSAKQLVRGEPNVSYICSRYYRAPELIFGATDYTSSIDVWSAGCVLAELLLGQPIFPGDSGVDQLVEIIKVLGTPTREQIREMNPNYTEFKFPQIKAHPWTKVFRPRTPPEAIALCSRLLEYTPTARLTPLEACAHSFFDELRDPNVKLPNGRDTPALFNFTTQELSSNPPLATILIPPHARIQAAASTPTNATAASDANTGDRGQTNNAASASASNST
# Method notes: GSK3β kinase assay (Ser/Thr 09 peptide Z-lyte FRET)
# Assay type: biochemical
# Applied conditions: read-out: EC50 (method: IC50)
Outcome measure: IC50 (nM)

Please review the following examples before continuing.
O=C(Nc1ccc(F)cc1)c1n[nH]c2ccc(-c3cnn(C4CNC4)c3)cc12 :: 674
O=C(Nc1ccc(Cl)cc1)c1n[nH]c2cc(F)c(-c3cnn(C4CCNCC4)c3)cc12 :: 476
O=C(Nc1ccc(F)cc1)c1n[nH]c2ccc(-c3nnc4n3CCNC4)cc12 :: 1

[1] CN1CCN(c2ccc(NC(=O)c3n[nH]c4cc(F)c(-c5cnn(C)c5)cc34)cn2)CC1
[2] CN1CCC(n2cc(-c3ccc4[nH]nc(C(=O)Nc5ccc(OC(F)F)nc5)c4c3)cn2)CC1
Prompt line: // which entry has the larger IC50 value, 1 or 2 ? The response must carry the label of the picked entry.
Response line: 2
(2: 774 nM, 1: 46 nM)

* * *

# Tgt: DYRK1A kinase (Homo sapiens (Human))
# Method notes: DYRK1A kinase assay (Ser/Thr 18 peptide Z-lyte FRET)
# Format: biochemical
# Applied conditions: read-out: EC50 (method: IC50)
Outcome measure: IC50 (nM)

CC(C)CN1CC[C@H](NC(=O)c2n[nH]c3cc(F)c(-c4cnn(C)c4)cc23)[C@@H](F)C1 :: 16
CN1CCC(Oc2ccc(NC(=O)c3n[nH]c4cc(F)c(-c5ccn(C)n5)cc34)cc2)CC1 :: 61
Cc1ncc(NC(=O)c2n[nH]c3ccc(-c4cnn(C5CCNCC5)c4)cc23)s1 :: 2
CN1CCC(n2cc(-c3ccc4[nH]nc(C(=O)Nc5cnn(C)c5)c4c3)cn2)CC1 :: 8
CN1CCC(Oc2ccc(NC(=O)c3n[nH]c4cc(F)c(-c5cn(C)nc5CO)cc34)cc2)CC1 :: 1210
C[C@H](NC(=O)c1n[nH]c2c(F)cc(-c3cnn(C)c3)cc12)C(F)(F)F :: 439
O=C(Nc1ccc(F)cc1)c1n[nH]c2cc(F)c(-c3cnn(C4CCNCC4)c3)cc12 :: 15
O=C(N[C@H]1CC[C@H](CN2CC(F)C2)CC1)c1n[nH]c2ccc(-c3cnn4c3CCCC4)cc12 :: 4

[1] CC(C)(F)CN1CCC(NC(=O)c2n[nH]c3ccc(-c4cn[nH]c4)cc23)CC1
[2] O=C(Nc1ccc(N2CCCC2)nc1)c1n[nH]c2cc(F)c(-c3cnn(C4CC4)c3)cc12
Prompt line: // which entry has the larger IC50 value, 1 or 2 ? The response must carry the label of the picked entry.
Response line: 2
(2: 39 nM, 1: 7 nM)

[a] CC(C)CNC(=O)c1n[nH]c2ccc(-c3cn[nH]c3)cc12
[b] Cn1cc(-c2ccc3[nH]nc(C(=O)N[C@H]4CC[C@H](CN5CC(F)C5)CC4)c3c2)cn1
[c] CC(C)(F)CN1CCC(NC(=O)c2n[nH]c3ccc(-c4cnn(C5CC5)c4)cc23)CC1
[d] CC[C@H](NC(=O)c1n[nH]c2ccc(-c3cnc(C)n3C)cc12)C(F)(F)F
Prompt line: Parameters: sort_field (IC50), sort_dir (desc). Please express your ranking as an ordered list of the labels.
Response line: d, c, a, b

[I] Cn1cc(-c2ccc3[nH]nc(C(=O)NCC(F)(F)CN4CCCC4)c3c2)cn1
[II] O=C(Nc1ccc(OC(F)F)cc1)c1n[nH]c2ccc(-c3cnn(C4CCNCC4F)c3)cc12 (centres unmarked)
Prompt line: Hi there, can you help? I need to know whether I or II has lower measured IC50. The response must carry the label of the picked entry.
Response line: I

[a] Cc1ncc(-c2ccc3[nH]nc(C(=O)Nc4ccc(OC5CCN(C)CC5)cc4)c3c2)n1C
[b] Cn1cc(-c2cc3c(C(=O)N[C@@H]4CCCC[C@H]4F)n[nH]c3cc2F)cn1
Prompt line: Hi there, can you help? I need to know whether a or b has lower measured IC50. The response must carry the label of the picked entry.
Response line: a
(a: 5 nM, b: 16 nM)

This collection of values is drawn from patent US10934297B2.
